Tested on: MDA-MB-231 breast
Protocol Text: NCI-60 one-dose screen, 48 h (100 = growth as untreated, 0 = no growth, -100 = all killed)
Run Conditions: 10 µM unless noted
Compounds without any hit were thinned out: in the full panel of roughly 83,000, 20% have a hit. Active and inactive are the calls of the source. Rule for the calls: active = growth percent below 10; inactive = the rest.
Metric: growth

Below: 6 compounds and their reported growth.
{"Compound": "O=C(Nc1cccc(Cl)c1)Nc1nc2ccc([N+](=O)[O-])cc2s1", "Metric": "growth", "Result": "-9.3% (active)"}
{"Compound": "CCC(=O)Nc1ccc(-c2nc(-c3cccc(O)c3)c(-c3ccnc(Br)c3)[nH]2)cc1", "Metric": "growth", "Result": "71.8% (inactive)"}
{"Compound": "CS(=O)c1nccc(-c2c(-c3ccc(F)c(OCCc4ccc(F)cc4)c3)nc3sccn23)n1 (stereo not drawn)", "Metric": "growth", "Result": "45% (inactive)"}
{"Compound": "Cc1ccc(Cc2cnc(NC(=O)/C(C#N)=C/c3ccc(-c4ccc(Cl)cc4)o3)s2)cc1", "Metric": "growth", "Result": "97.4% (inactive)"}
{"Compound": "CS(=O)(=O)c1ccc2c(c1)c1c(n2S(=O)(=O)c2ccc(Cl)cc2)CCCC1", "Metric": "growth", "Result": "29.8% (inactive)"}
{"Compound": "COc1ccc2c(ccn2C(=O)N2c3ccccc3Sc3ccccc32)c1", "Metric": "growth", "Result": "64.5% (inactive)"}

Please report growth for the following compound: `COc1cc(/C=N/n2cnc3oc(-c4ccccc4)cc3c2=N)cc(CN2CCCC2)c1O`
-70% (active)

Could you please provide reported growth for `Cc1cc(NS(=O)(=O)c2ccc(-c3cnc(C4CC4)o3)cc2)ccc1I` ? Thanks!
40.9% (inactive)

----------
System: UACC-62 melanoma
Protocol Text: NCI-60 one-dose screen, 48 h (100 = growth as untreated, 0 = no growth, -100 = all killed)
Run Conditions: 10 µM unless noted
The panel holds about 83,000 compounds, 20% with a hit somewhere; the sample as a whole holds those more often. The source made the active and inactive calls. The calls were made as follows: active = growth percent below 10; inactive = the rest.
Listing of recorded growth by entry.

Worked set:
{"Compound": "NC(N)=NS(=O)(=O)c1ccc(N=NC2C(=O)NN(c3ccccc3)C2=O)cc1 (stereo not drawn)", "growth": "96.1% (inactive)"}
{"Compound": "O=C1C[C@@H](c2ccccc2)Oc2c(Cc3ccccc3O)c(O)c(Cc3cc(Cc4cc(Cc5ccccc5O)ccc4O)ccc3O)c(O)c21", "growth": "72.7% (inactive)"}
{"Compound": "Cc1ccc(-c2cc(-c3ccc(N(C)C)cc3)n3c(n2)nc2ccccc23)cc1", "growth": "35% (inactive)"}
{"Compound": "CC(c1ccccc1)N1C(=O)/C(=C/c2csc(C#N)n2)SC1=S (stereo not drawn)", "growth": "85.4% (inactive)"}
{"Compound": "CC(=O)C1=NN(c2ccc(Cl)cc2)C(=O)CN1C", "growth": "97.7% (inactive)"}
{"Compound": "Cc1ccc(C2CC(c3ccc(Nc4nc(NCCO)nc(Nc5ccc(Cl)cc5)n4)cc3)=Nc3c(N)nc(N)nc3N2)cc1 (stereo not drawn)", "growth": "107% (inactive)"}
{"Compound": "CCn1c2ccc(/C=N/OCCCN(C)C)cc2c2cc(/C=N/OCCCN(C)C)ccc21", "growth": "10.6% (inactive)"}
{"Compound": "Cc1ccc(-c2csc(N/N=C/c3nc4ccccc4n3C3CC3)n2)cc1", "growth": "95.1% (inactive)"}
{"Compound": "N#C/C(=C\\c1ccc(-c2ccc(F)cc2)o1)C(=O)Nc1ncc(Cc2ccc(Cl)cc2Cl)s1", "growth": "15.9% (inactive)"}
{"Compound": "CC[C@@](C)(NC(=O)C(C)(C)NC(=O)[C@@H](NC(=O)[C@@H]1CCCN1C(=O)C(C)(C)NC(=O)[C@H](CC(C)C)NC(=O)CNC(=O)C(C)(C)NC(=O)[C@@H](NC(=O)C(C)(C)NC(=O)[C@H](CCC(N)=O)NC(=O)[C@H](C)NC(=O)C(C)(C)NC(=O)[C@H](C)NC(=O)C(C)(C)NC(=O)[C@@H]1CCCN1C(=O)C(C)(C)NC(C)=O)C(C)C)C(C)C)C(=O)N[C@@H](CCC(N)=O)C(=O)N[C@@H](CCC(N)=O)C(=O)N[C@H](CO)Cc1ccccc1", "growth": "47.5% [4.25 µM] (inactive)"}

Query growth for `C/C(Cc1ccc(Cl)cc1)=C(/c1ccccc1)c1ccc(OCCN)cc1`
91.7% (inactive)

Return the recorded growth value; entry: CC1COc2c(N3CCN(C)CC3)c(F)cc3c(=O)c(C(=O)N/N=C/c4cc[nH]c4)cn1c23 (stereo not drawn)
76% (inactive)

For the compound `CN(c1ccc(Cl)cc1)S(=O)(=O)c1ccc(-c2cnc(C3CC3)o2)cc1` , report growth.
37.3% (inactive)

----------
Tested on: KM12 colon
Protocol Text: NCI-60 one-dose screen, 48 h (100 = growth as untreated, 0 = no growth, -100 = all killed)
Run Conditions: 10 µM unless noted
Method: Growth inhibition of the KM12 human tumor cell line is measured as a screen for anti-cancer activity. Cells are grown in 96 well plates and exposed to the test compound for 48 hours. Compounds are tested at a single concentration, which is 10^-5 M for most compounds. The reported endpoint is percent growth (GI% or GIPRCNT), where numbers from 0 - 100% represent growth inhibition, and numbers from -100% - 0 represent cell death. For example, a value of 40 represents 60% growth inhibition. […]
The panel holds about 83,000 compounds, 20% with a hit somewhere; the sample as a whole holds those more often. The source made the active and inactive calls. Rule for the calls: active = growth percent below 10; inactive = the rest.
Metric: growth

Some compounds with recorded growth:
{"Compound": "Cc1ccc(NC(=O)c2cc(/C=C/C(=O)NO)cc(C(F)(F)F)c2)cc1Nc1nccc(-c2cccnc2)n1", "growth": "16.4% (inactive)"}
{"Compound": "CCOP(=O)(OCC)OC[C@]12CCC(C)(C)C[C@H]1C1=CC[C@@H]3[C@@]4(C)C/C(=C\\c5cccnc5)[C@H](OP(=O)(OCC)OCC)C(C)(C)[C@@H]4CC[C@@]3(C)[C@]1(C)CC2", "growth": "23.6% (inactive)"}
{"Compound": "CCN1C(=O)N(CC)C2SC(N/N=C/c3ccccc3)=NC21 (stereo not given)", "growth": "13.3% (inactive)"}
{"Compound": "CC(=O)Nc1ccc(NC(=O)Nc2cccc(-c3nc(-c4ccc(NC(=O)c5cccnc5)cc4Cl)no3)c2)cc1C(F)(F)F", "growth": "-46.2% (active)"}

Specify growth for `COc1cc(/C=C/C(=O)c2ccc(N3CCN(C)CC3)cc2)ccc1F` , system KM12 colon.
36.7% (inactive)

----------
Test system: SF-295 CNS
Protocol Text: NCI-60 one-dose screen, 48 h
Run Conditions: 10 µM unless noted
Compounds without any hit were thinned out: in the full panel of roughly 83,000, 20% have a hit. The source made the active and inactive calls. The calls were made as follows: active = growth percent below 10; inactive = the rest.
Your reply should match one of these outcome classes. active, inactive

Please review the entries below; each comes with its answer.
{"Compound": "CC1CCc2c(sc3nc(SCC(=O)N/N=C/c4cccc(O)c4O)n(-c4ccccc4)c(=O)c23)C1 (stereo unspecified)", "Assigned Label": "inactive"}
{"Compound": "COC(=O)c1nc(-c2ccc(C)cc2)oc1S(=O)(=O)N1CCN(c2oc(-c3ccccc3)nc2C#N)CC1", "Assigned Label": "inactive"}
{"Compound": "CN1CCN(Cc2ccc(NC(=O)c3cncc(C#Cc4[nH]nc5ncncc45)c3)cc2C(F)(F)F)CC1", "Assigned Label": "inactive"}
{"Compound": "COc1ccc(-c2cc(-c3cccc4ccccc34)n3c(n2)nc2ccccc23)cc1OC", "Assigned Label": "active"}
{"Compound": "O=C1Nc2cc(OC(F)(F)F)ccc2Oc2ccc(-c3ccnc(N4CC[C@H](O)C4)c3)cc21", "Assigned Label": "active"}
{"Compound": "Fc1ccc(-c2cc3nc(C(Cl)Cl)nc(-c4cccs4)n3n2)cc1", "Assigned Label": "active"}
{"Compound": "Oc1ccc(CSc2nnc(-c3ccc(Oc4ccccc4)cc3)o2)c2cccnc12", "Assigned Label": "active"}
{"Compound": "CC(c1ccccc1)N1C(=O)/C(=C/c2csc(C#N)n2)SC1=S (stereo unspecified)", "Assigned Label": "inactive"}
{"Compound": "COc1ccc(-c2nnc(SCc3ccc(O)c4ncccc34)n2-c2ccccc2)cc1", "Assigned Label": "active"}
{"Compound": "CS(=O)(=O)c1nccc(-c2c(-c3ccc(F)c(OCCc4ccc(F)cc4)c3)nc3sccn23)n1", "Assigned Label": "inactive"}

Next up:
// return assay outcome for `O=C1Nc2ccc(Cl)cc2/C1=C/c1ccc(OCc2ccc(Br)cc2F)cc1`
inactive

----------
Tested on: MOLT-4 leukemia
Protocol Text: NCI-60 one-dose screen, 48 h (100 = growth as untreated, 0 = no growth, -100 = all killed)
Run Conditions: 10 µM unless noted
Procedure: Growth inhibition of the MOLT-4 human tumor cell line is measured as a screen for anti-cancer activity. Cells are grown in 96 well plates and exposed to the test compound for 48 hours. Compounds are tested at a single concentration, which is 10^-5 M for most compounds. The reported endpoint is percent growth (GI% or GIPRCNT), where numbers from 0 - 100% represent growth inhibition, and numbers from -100% - 0 represent cell death. For example, a value of 40 represents 60% growth inhibition. […]
The panel holds about 83,000 compounds, 20% with a hit somewhere; the sample as a whole holds those more often.
Metric: growth (%)
Response body: numeric value in %, unit text excluded.

Some solved cases for reference:
{"Molecule": "Cc1ccc(-n2cc(/C=C/C(=O)c3ccc(S(C)(=O)=O)cc3)c(-c3ccc(S(C)(=O)=O)cc3)n2)cc1", "System Name": "MOLT-4 leukemia", "Unit Info": "%", "Measured Number": 71.9}
{"Molecule": "NC(=S)N/N=C(/C=C/c1cn(-c2ccccc2)nc1-c1ccc(Cl)cc1)c1cc2ccccc2oc1=O", "System Name": "MOLT-4 leukemia", "Unit Info": "%", "Measured Number": 23.7}
{"Molecule": "O=C(Nc1cc(Cl)cc(Cl)c1)Nc1ccc2oc(=O)ccc2c1", "System Name": "MOLT-4 leukemia", "Unit Info": "%", "Measured Number": 12.4}
{"Molecule": "Cn1cc(-c2nnc(N)nc2-c2cn(C)c3ccc(F)cc23)c2cc(F)ccc21", "System Name": "MOLT-4 leukemia", "Unit Info": "%", "Measured Number": 79.1}
{"Molecule": "C#CCOc1ccccc1C(Nc1ccccc1)c1nnnn1C1CCCCC1 (centres undefined)", "System Name": "MOLT-4 leukemia", "Unit Info": "%", "Measured Number": 88.3}

Here is the next item to consider.
For the molecule `NS(=O)(=O)Oc1ccc2nc(Nc3ccc(F)c(F)c3)ccc2c1` , give its reported growth.
67
